Tested on: L. major axenic amastigotes
Experiment: L. major axenic amastigote viability, resazurin reduction
Conditions: Leishmania major, read-out: viability, L.major amastigote(2.5 µM)
Procedure: L. major LV561(MHOM/IL/67/LRC-L137 JERICHO II) amastigotes were passaged in Grace insect medium supplemented with NaHCO3, 0.1% amikin and 20% of FCS (pH: 5.4) and kept at 33°C. Exponential growth phase promastigotes of L. major or L. infantum and axenic amastigotes (L. major) were harvested and seeded in 384 well plates (white, non-transparent, tissue culture treated, flat bottom; Corning) (0.5x10^5 cells per well). […]
Endpoint Name: viability at 2.5 µM (%)
Please respond with the number in % and leave the unit unwritten.

Some solved entries appear below for comparison.
| Compound | Test Target | Unit Tag | Assay Value |
| --- | --- | --- | --- |
| CC(C)(C)OC(=O)NC(Cc1ccccc1)C(O)CNc1cccc(C(F)(F)F)c1 (centres unmarked) | L. major axenic amastigotes | % | 77 |
| CC(C)(C)OC(=O)NC(Cc1ccccc1)C(O)CNc1ccc(OC(F)(F)F)cc1 (centres unmarked) | L. major axenic amastigotes | % | 68.4 |
| CC(C)(C)OC(=O)NC(Cc1ccccc1)C(O)CNc1ccc(C(C)(C)C)cc1 (centres unmarked) | L. major axenic amastigotes | % | 71.4 |

Problem: For the compound CC(C)(C)c1ccc(NC[C@H](O)[C@@H](N)Cc2ccccc2)cc1 , what viability at 2.5 µM is on record?
Solution: 73.9

Problem: Endpoint output: viability at 2.5 µM of Cc1ccc(NC[C@H](O)[C@@H](N)Cc2ccccc2)cc1 . Value?
Solution: 76.2

---

experiment: Cytotoxicity assay J774, resazurin reduction; type: cell-based, murine; conditions: mouse, J774 macrophage cells; 2.5 µM; read-out: viability, J774 (2.5 µM)
Endpoint Name: viability at 72 h, 2.5 µM

Examples from the recorded data:
| Compound | viability at 72 h, 2.5 µM |
| --- | --- |
| CC(C)(C)OC(=O)NC(Cc1ccccc1)C(O)CNc1ccc(C(C)(C)C)cc1 (centres unmarked) | 92.3% |
| Cc1cccc(C)c1NC[C@H](O)[C@@H](N)Cc1ccccc1 | 100% |
| N[C@@H](Cc1ccccc1)[C@@H](O)CNc1ccc(C(F)(F)F)cc1 | 96.1% |
| N[C@@H](Cc1ccccc1)[C@@H](O)CNc1ccc(OC(F)(F)F)cc1 | 97.4% |

Turning to the following compound.
Problem: Given O=C(CCc1ccc(Br)cc1)NC(Cc1ccccc1)C(O)CN1CCN(Cc2ccccc2)CC1 (centres unmarked) , state its recorded viability at 72 h, 2.5 µM.
Solution: 99.9%

---

assay: Cytotoxicity assay J774, resazurin reduction; type: cell-based, murine; conditions: mouse, J774 macrophage cells; 25 µM; read-out: viability, J774 (25 µM)
Endpoint Name: viability at 72 h, 25 µM (%)
Report only the number, with the unit % understood.

| Compound | viability at 72 h, 25 µM (%) |
| --- | --- |
| COc1ccc(NC[C@H](O)[C@@H](N)Cc2ccccc2)cc1 | 97.8 |

Problem: Return reported viability at 72 h, 25 µM; argument: O=C(Cc1ccc2ccccc2c1)NC(Cc1ccccc1)C(O)CN1CCN(Cc2ccccc2)CC1 (stereo not shown)
Solution: 2.99

Problem: What value of viability at 72 h, 25 µM has been recorded for this entry: CC(C)(C)OC(=O)NC(Cc1ccccc1)C(O)CNc1cccc(C(F)(F)F)c1 (stereo not shown)
Solution: 98.5

Problem: viability at 72 h, 25 µM for N[C@@H](Cc1ccccc1)[C@@H](O)CNc1ccc(OC(F)(F)F)cc1 ?
Solution: -0.47

Problem: What value of measured viability at 72 h, 25 µM is listed for CC(C)(C)OC(=O)NC(Cc1ccccc1)C(O)CNc1ccc(OC(F)(F)F)cc1 (stereo not shown) ?
Solution: 75.7

Problem: So what does the record say about viability at 72 h, 25 µM for O=C(CCc1ccc(Br)cc1)NC(Cc1ccccc1)C(O)CN1CCN(Cc2ccccc2)CC1 (stereo not shown) ?
Solution: 2.99

Problem: Look up viability at 72 h, 25 µM for this compound: O=C(Cc1cccc(C(F)(F)F)c1)NC(Cc1ccccc1)C(O)CN1CCN(Cc2ccccc2)CC1 (stereo not shown)
Solution: 4.16

Problem: Dear colleague, I am looking for the recorded viability at 72 h, 25 µM of the following compound: CC(C)(C)c1ccc(NC[C@H](O)[C@@H](N)Cc2ccccc2)cc1
Solution: 64.1

Problem: What viability at 72 h, 25 µM value was documented for this compound, N[C@@H](Cc1ccccc1)[C@@H](O)CNc1ccc(F)cc1F ?
Solution: 96.6

Problem: Which viability at 72 h, 25 µM is reported for this compound? N[C@@H](Cc1ccccc1)[C@@H](O)CNc1ccc(C(F)(F)F)cc1
Solution: 99.9

Problem: Please give the measured viability at 72 h, 25 µM for this compound: Cc1cccc(C)c1NC[C@H](O)[C@@H](N)Cc1ccccc1
Solution: 85.1

Problem: Please look up its viability at 72 h, 25 µM: Cc1ccc(NC[C@H](O)[C@@H](N)Cc2ccccc2)cc1
Solution: 93.5

---

Endpoint Name: melting point

| Compound | Assay Value |
| --- | --- |
| Cc1ccc(NC[C@H](O)[C@@H](N)Cc2ccccc2)cc1 [LTC-1043] | 57 to 59 °C |

Problem: melting point lookup needed for N[C@@H](Cc1ccccc1)[C@@H](O)CNc1ccc(F)cc1F [LTC-1032] , thanks.
Solution: 89 to 91 °C

Problem: Find the recorded melting point belonging to Cc1cccc(C)c1NC[C@H](O)[C@@H](N)Cc1ccccc1 [LTC-1041] and report it.
Solution: 63 to 65 °C

Problem: I'd like to know its melting point. The compound in question is N[C@@H](Cc1ccccc1)[C@@H](O)CNc1ccc(F)cc1 [LTC-1026]
Solution: 88 to 90 °C

Problem: So what does the record say about melting point for CC(C)(C)c1ccc(NC[C@H](O)[C@@H](N)Cc2ccccc2)cc1 [LTC-1034] ?
Solution: 74 to 76 °C

---

experiment: Cytotoxicity assay J774, resazurin reduction; assay type: cell-based, murine; conditions: mouse, J774 macrophage cells; cytotoxicity, 25 µM, 72 h; read-out: Residual viability, J774 (25 µM)
Listed here are compounds together with their documented viability at 72 h, 25 µM.
Kindly provide the numeric value in % only, without the unit symbol.

| Compound | Unit Tag | viability at 72 h, 25 µM |
| --- | --- | --- |
| CC[C@@H](C)[C@H](c1nc2ccccc2n1Cc1cn(-c2ccc(C(F)(F)F)cc2)nn1)N1C(=O)c2ccccc2C1=O [PHT-39] | % | 68 |
| CC[C@@H](C)[C@H](c1nc2ccccc2n1Cc1cn(-c2c(F)c(F)c(F)c(F)c2F)nn1)N1C(=O)c2ccc(C)cc2C1=O [PHT-80] | % | 78.1 |
| CC[C@@H](C)[C@H](c1nc2ccccc2n1Cc1cn(-c2c(F)c(F)c(F)c(F)c2F)nn1)N1C(=O)c2ccccc2C1=O [PHT-41] | % | 86.1 |

Kindly consider the entry below.
Problem: Which value of viability at 72 h, 25 µM has been reported for C[C@@H]1[C@H](O)[C@@H](C)/C=C/C=C/C=C/C=C/C=C/C=C/C=C/[C@H](O[C@@H]2O[C@H](C)[C@@H](O)[C@H](N)[C@@H]2O)C[C@@H]2O[C@](O)(C[C@@H](O)C[C@@H](O)[C@H](O)CC[C@@H](O)C[C@@H](O)CC(=O)O[C@H]1C)C[C@H](O)[C@H]2C(=O)O [AmB, amphotericin B, reference compound] in the records?
Solution: 57.7

---

Consider the following molecules and their measured EC50 readings.
system: intracellular L. infantum amastigotes; test: Parasite rescue assay (intramacrophage, J774 infected with L. infantum); format: cell-based, Leishmania infantum; settings: read-out: EC50 L. infantum rescue assay; intramacrophage (J774), 18 concentrations
Please report the result as a number followed by the unit.

| Molecule | EC50 |
| --- | --- |
| CC(C)(C)OC(=O)NC(Cc1ccccc1)C(O)CNc1ccc(OC(F)(F)F)cc1 (centres unmarked) [LTC-1023] | 4.08 µM |

Next item in the queue.
Problem: Query (molecule): CC(C)(C)OC(=O)NC(Cc1ccccc1)C(O)CNc1ccc(C(C)(C)C)cc1 (centres unmarked) [LTC-1035] ; field requested: EC50
Solution: 6.67 µM

---

Endpoint Name: melting point

| Compound | melting point |
| --- | --- |
| N[C@@H](Cc1ccccc1)[C@@H](O)CNc1ccc(C(F)(F)F)cc1 [LTC-1027] | 105 to 107 °C |
| CC(=O)c1ccc(NC[C@H](O)[C@@H](N)Cc2ccccc2)cc1 [LTC-1031] | 123 to 125 °C |
| N[C@@H](Cc1ccccc1)[C@@H](O)CNc1cccc(C(F)(F)F)c1 [LTC-1029] | 72 to 74 °C |
| COc1ccc(NC[C@H](O)[C@@H](N)Cc2ccccc2)cc1 [LTC-1042] | 78 to 80 °C |

Switching to the query record.
Problem: Sample N[C@@H](Cc1ccccc1)[C@@H](O)CNc1ccc(OC(F)(F)F)cc1 [LTC-1028] — what was its melting point?
Solution: 112 to 114 °C
